// values below are reported pIC50
Biological target: APC11/APC2 (Homo sapiens, UniProt Q9NYG5+Q9UJX6)
Sequence (Q9NYG5 whole entry): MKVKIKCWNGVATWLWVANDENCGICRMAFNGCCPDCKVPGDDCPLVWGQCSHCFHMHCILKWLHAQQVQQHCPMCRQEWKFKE
Sequence (Q9UJX6 whole entry): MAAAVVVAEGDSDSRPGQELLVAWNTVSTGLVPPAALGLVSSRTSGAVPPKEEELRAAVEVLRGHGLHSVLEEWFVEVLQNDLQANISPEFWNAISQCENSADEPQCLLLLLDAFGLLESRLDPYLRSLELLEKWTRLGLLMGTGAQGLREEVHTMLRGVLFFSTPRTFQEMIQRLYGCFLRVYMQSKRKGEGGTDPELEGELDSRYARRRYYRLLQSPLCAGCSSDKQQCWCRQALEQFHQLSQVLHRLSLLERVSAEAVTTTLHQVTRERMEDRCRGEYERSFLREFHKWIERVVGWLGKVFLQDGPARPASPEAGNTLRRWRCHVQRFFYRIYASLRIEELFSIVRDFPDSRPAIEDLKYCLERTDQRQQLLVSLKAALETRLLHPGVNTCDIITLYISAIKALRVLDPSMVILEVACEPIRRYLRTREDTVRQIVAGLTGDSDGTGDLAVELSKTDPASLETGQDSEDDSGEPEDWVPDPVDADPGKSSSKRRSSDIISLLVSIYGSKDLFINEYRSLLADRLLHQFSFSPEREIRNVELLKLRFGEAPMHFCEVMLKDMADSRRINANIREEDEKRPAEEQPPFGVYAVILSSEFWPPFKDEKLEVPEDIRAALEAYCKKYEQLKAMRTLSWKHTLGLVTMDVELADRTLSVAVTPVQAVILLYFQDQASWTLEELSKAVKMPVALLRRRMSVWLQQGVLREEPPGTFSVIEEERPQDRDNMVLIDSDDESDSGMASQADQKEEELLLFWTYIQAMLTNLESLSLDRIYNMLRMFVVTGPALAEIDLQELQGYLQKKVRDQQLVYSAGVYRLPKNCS
Assay: APC-11/APC-2 ligase assay (APC auto ubiquitination)
Conditions: APC assay
pIC50: −log10 of the molar value.
EXPERIMENTAL_READOUT: pIC50

• O=C1OC2(CCN(S(=O)(=O)c3ccc(Cl)c4nonc34)CC2)c2ccccc21 [compound 332] = 4.70 to 6.00
• Nc1cccc2c(NS(=O)(=O)c3ccc(Sc4cccc5cccnc45)c4nonc34)cccc12 [compound 390] = 4.70 to 6.00
• O=c1[nH]c2ccccc2n1C1CCN(S(=O)(=O)c2ccc(Sc3cccc4cccnc34)c3nonc23)CC1 [compound 190] = 4.70 to 6.00
• Cc1c(NS(=O)(=O)c2ccc(Cl)c3nonc23)cccc1C(F)(F)F [compound 350] = ≤ 4.70
• O=S(=O)(Nc1cccc2ccccc12)c1ccc(Sc2cccc3cccnc23)c2nonc12 [compound 407] = 4.70 to 6.00
• CC(C)(C)c1ccc(-c2cc([N+](=O)[O-])cc3nonc23)cc1 [compound 481] = 4.70 to 6.00
• COc1ccc(OC)c(NS(=O)(=O)c2ccc(Nc3ccccc3OC)c3nonc23)c1 [compound 367] = ≤ 4.70
• Cc1cc(C)cc(-c2ccc([N+](=O)[O-])c3nonc23)c1 [compound 286] = 4.70 to 6.00
